biological target: Grb2 SH2 (UniProt P62993); assay: SH2 binding enrichment of the phosphorylated peptide, bacterial display (enrichment ratio); higher = better substrate or ligand; peptides without Tyr show the background
readout.type: SH2 binding enrichment

seq.text	readout.type	assay.value
TFQFKYPEGSS [TGM4_Y440_E437Q_YF]	SH2 binding enrichment	0.955
SLLPDYEDEEE [ZNF830_Y159]	SH2 binding enrichment	0.942
WAMPAYNRSKL [WWOX_Y293_L291P]	SH2 binding enrichment	0.909
IFLENYNAGTF [CFI_Y421_H418L_YF]	SH2 binding enrichment	0.761
VVKLAYNENDN [CAMKK2_Y183]	SH2 binding enrichment	0.904

A = RKMSSYAFFVQ [HMGB1_Y16_G11R]
B = CTTIHYNFMWN [TP53_Y234_C238W_YF]
C = IRKKYYRAILE [CHD7_Y1218_Q1214R]
Query: Ordering criterion: SH2 binding enrichment; begin with the maximum. Give the order by naming the labels one after another as requested.
Response: A, B, C

---

# phosphorylation enrichment listing for each entry below
system: c-Src; assay: phosphorylation enrichment, bacterial display (enrichment ratio); higher = better substrate or ligand; peptides without Tyr show the background
// no unit, no text: just the number

seq.text	assay.value
ELQDDYEDTME [SLC4A1_Y8_M11T]	0.603
RRIHSYRCHLW [VHL_Y112_G114C]	0.748
KNEVFYQCPDQ [FBXO3_Y223]	0.985
KDGNGYISVAE [CALM3_Y100_A103V]	0.598

Query: Fill in: phosphorylation enrichment of VFSSDYFSFVL [USP24_Y2138_YF] is ___
Response: 4.09

---

test system: AncSZ; test: phosphorylation enrichment, bacterial display (enrichment ratio); higher = better substrate or ligand; peptides without Tyr show the background
Entries annotated with measured phosphorylation enrichment
Please respond with just the number, no unit label.

Answered cases to consult:
seq.text	assay.value
EDKFMYLEFPQ [PTEN_Y240_F241L]	1.71
LSSETYVKSYT [F5_Y2149_M2148T]	0.946
FLTQHHDAKPQ [ANG_Y38_Y38H]	0.497
SSSGAYGGGYG [KRT19_Y61]	0.454
VQEDIYDEFVV [ALDH2_Y332_E337V]	1.55

Query: # input sequence: KGEDFYFVTCH [FHL1_Y149_C150Y_YF] ; wanted: its phosphorylation enrichment
Response: 1.26

Query: Return reported phosphorylation enrichment; argument: ALRASYTPSPV [ESS2_Y418_A423V]
Response: 0.847

---

target: SHP2-C SH2; test: SH2 binding enrichment of the phosphorylated peptide, bacterial display (enrichment ratio); higher = better substrate or ligand; peptides without Tyr show the background
readout.type: SH2 binding enrichment

a = NYAKMYCNPDA [KNL1_Y489]
b = KVALLYKPYFY [POLE_Y100_P99L]
Query: Identify the item whose SH2 binding enrichment is the smaller number: a or b Response format: the label of the selected entry.
Response: a
(a: 0.531, b: 1.44)

A = LLPNAYIFVVQ [L1CAM_Y418_A415P_YF]
B = VKYLGYPPPEI [KDR_Y357_A352V]
Query: Param metric = SH2 binding enrichment; output whichever of A , B has the minimum value. Pick one and reply with its label.
Response: A
